Target: human importin α3 (Impα3), intact (human)
Sequence (O00629 whole entry): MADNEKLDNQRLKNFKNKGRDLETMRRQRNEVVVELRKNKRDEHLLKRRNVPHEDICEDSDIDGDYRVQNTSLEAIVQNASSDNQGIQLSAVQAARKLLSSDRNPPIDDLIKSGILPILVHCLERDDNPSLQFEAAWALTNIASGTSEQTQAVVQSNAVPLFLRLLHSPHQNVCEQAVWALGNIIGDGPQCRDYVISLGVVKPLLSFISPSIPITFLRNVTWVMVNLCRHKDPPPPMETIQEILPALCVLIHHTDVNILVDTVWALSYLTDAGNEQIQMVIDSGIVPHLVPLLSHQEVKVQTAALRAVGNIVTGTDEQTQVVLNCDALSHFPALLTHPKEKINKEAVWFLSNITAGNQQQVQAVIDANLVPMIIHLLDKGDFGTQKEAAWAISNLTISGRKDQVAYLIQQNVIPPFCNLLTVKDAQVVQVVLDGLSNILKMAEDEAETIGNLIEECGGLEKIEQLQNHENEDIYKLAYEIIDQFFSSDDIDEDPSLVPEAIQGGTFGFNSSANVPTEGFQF
Test: ITC; PADI4 or peptide (100 µM) in the syringe titrated into importin (10 µM) in the cell; 20 mM Tris pH 7.5, 5 mM TCEP, 150 mM NaCl, 5% glycerol; 25 °C; single-site model
MEASUREMENT KIND: Kd (µM)
Please give a number only; it is taken to be in µM.

Dear colleague, I am looking for the recorded Kd of the following binder: Ac-YKLFQEQQNEGHGEALLFEGIKKKKQQKI-NH2 [NLS2-PADI4 peptide]
23
